We begin with a simple list: items and their reported pIC50.
Biological target: Tyrosinase (Agaricus bisporus)
Sequence (O42713 whole entry): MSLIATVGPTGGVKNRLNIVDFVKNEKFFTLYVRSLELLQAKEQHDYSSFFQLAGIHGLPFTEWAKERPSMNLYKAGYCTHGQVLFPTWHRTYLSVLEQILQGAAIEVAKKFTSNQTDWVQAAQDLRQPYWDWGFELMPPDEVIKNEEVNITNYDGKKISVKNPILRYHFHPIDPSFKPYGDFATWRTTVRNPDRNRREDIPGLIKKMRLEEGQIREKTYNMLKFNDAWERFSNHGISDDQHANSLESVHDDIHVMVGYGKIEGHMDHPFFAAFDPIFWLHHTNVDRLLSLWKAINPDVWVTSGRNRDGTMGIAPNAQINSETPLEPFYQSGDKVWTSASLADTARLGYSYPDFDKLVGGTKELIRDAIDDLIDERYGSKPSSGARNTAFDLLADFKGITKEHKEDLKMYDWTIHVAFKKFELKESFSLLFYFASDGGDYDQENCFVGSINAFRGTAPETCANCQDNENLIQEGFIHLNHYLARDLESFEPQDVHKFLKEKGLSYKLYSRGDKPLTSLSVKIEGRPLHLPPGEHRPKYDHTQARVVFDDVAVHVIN
Assay: Inhibition of mushroom tyrosinase using L-dopa as substrate incubated for 30 mins by microplate reader analysis
# pIC50 is unitless: minus log10 of the molar concentration; print number only

Check out these entries, answers already filled in.
• OCC1CSC(c2ccc(O)cc2O)S1 (stereo not drawn) = 4.86
• O=C1N=C(Nc2nc3ccccc3s2)S/C1=C\c1ccc(O)cc1O = 5.74

// next item, pIC50 requested
Which pIC50 reading was recorded for the compound O=C1/C(=C/c2ccc(O)c(Br)c2)CSc2ccccc21 ? 5.39

All values here come from ChEMBL document CHEMBL5241093.
